Target: human glucocorticoid receptor-α [GRX] isoform (Homo sapiens, UniProt P04150)
Construct: host or cells: insect SF21 cells (baculovirus)
Sequence (P04150 whole entry, canonical isoform): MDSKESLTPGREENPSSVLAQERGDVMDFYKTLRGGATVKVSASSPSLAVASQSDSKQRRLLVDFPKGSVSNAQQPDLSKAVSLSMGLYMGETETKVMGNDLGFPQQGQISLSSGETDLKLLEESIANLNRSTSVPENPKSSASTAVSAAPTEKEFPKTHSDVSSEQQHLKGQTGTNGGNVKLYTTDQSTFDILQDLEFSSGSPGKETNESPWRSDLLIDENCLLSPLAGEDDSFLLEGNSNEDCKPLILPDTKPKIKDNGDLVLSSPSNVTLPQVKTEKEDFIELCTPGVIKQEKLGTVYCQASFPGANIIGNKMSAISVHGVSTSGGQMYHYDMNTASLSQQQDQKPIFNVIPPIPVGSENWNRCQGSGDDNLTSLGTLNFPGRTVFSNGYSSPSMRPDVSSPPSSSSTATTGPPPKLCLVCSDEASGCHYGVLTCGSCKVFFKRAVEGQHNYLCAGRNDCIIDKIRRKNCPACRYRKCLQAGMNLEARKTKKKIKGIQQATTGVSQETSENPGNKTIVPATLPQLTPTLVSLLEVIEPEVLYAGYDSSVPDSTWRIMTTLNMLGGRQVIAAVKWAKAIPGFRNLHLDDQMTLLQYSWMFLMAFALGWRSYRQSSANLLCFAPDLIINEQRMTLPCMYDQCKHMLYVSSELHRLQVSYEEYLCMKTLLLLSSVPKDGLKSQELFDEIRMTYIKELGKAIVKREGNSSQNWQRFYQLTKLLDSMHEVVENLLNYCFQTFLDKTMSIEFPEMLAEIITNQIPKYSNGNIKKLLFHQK
Assay: Radioligand binding with human glucocorticoid receptor cytosol ([3H]-dexamethasone competition)
Settings: GRX cytosol expressed in insect SF21 cells, [3H]-Dex ~0.9 nM, 4° C. overnight; Ki by Cheng-Prusoff, KL ~[…]; read-out: Ki (nM) GR
Response field label takes 1 when Ki is strictly below 30 nM and -1 in all other cases.

Illustrative cases are given below, each with its answer.
{"Molecule": "C=CCC1Oc2cccc(CO)c2-c2ccc3c(c21)C(C)=CC(C)(C)N3 (centres unmarked)", "Discrete Label": 1}
{"Molecule": "C=CCC1Oc2ccc(OC(=O)CCC(=O)N(CC)CC)c(OC)c2-c2ccc3c(c21)C(C)=CC(C)(C)N3 (centres unmarked)", "Discrete Label": 1}
{"Molecule": "COc1cccc2c1-c1ccc3c(c1[C@@H]([C@@H]1C=C(CO)CCC1)O2)C(C)=CC(C)(C)N3", "Discrete Label": 1}

Continue with the next molecule.
(Q) For this molecule, is Ki lower than 30 nM? C=CCC1Oc2c(C=C)ccc(OC)c2-c2ccc3c(c21)C(C)=CC(C)(C)N3 (centres unmarked)
(A) -1

Where do these numbers come from? They come from patent US6506766B1.
